Listed next: entries and their corresponding glycan array binding signal (z-score).
biological target: Neu5Ac(a2-8)Neu5Ac(a2-3)Gal(b1-3)GalNAc(b1-4)[Neu5Ac(a2-3)]Gal(b1-4)Glc; assay: glycan array binding signal (z-score within array); higher = stronger binding; conditions: glycan notation: IUPAC condensed, linker removed
Only a selection was taken, and the strongest signals are over-represented in it overall.

Answered cases to consult:
binder: PNGase F (Flavobacterium meningosepticum) (protein) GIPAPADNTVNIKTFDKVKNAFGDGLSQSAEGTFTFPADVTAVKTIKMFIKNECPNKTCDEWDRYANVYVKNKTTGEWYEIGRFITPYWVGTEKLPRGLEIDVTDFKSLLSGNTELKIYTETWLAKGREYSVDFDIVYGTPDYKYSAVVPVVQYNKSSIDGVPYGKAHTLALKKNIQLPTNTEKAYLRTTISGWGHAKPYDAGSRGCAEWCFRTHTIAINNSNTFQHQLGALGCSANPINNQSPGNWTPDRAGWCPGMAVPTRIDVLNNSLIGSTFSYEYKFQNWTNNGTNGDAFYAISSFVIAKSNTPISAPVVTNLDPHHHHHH
glycan array binding signal (z-score): -0.328

binder: CBP21 (Serratia marcescens), O83009 (protein) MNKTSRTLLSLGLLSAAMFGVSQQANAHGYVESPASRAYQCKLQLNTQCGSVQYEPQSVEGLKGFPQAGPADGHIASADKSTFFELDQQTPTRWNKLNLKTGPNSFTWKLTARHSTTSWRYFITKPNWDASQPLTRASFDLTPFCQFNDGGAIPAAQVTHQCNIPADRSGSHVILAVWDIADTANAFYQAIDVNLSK
glycan array binding signal (z-score): 4

binder: SSR2 (Sclerotium rolfsii) (protein) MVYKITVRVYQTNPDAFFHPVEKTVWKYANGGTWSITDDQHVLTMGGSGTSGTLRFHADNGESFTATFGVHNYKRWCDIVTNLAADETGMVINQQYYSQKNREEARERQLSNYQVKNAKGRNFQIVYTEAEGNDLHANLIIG
glycan array binding signal (z-score): -0.271

# input for lookup
(Q) Indicate its recorded glycan array binding signal (z-score); the binder in question is Pwp4 (Candida glabrata) (protein) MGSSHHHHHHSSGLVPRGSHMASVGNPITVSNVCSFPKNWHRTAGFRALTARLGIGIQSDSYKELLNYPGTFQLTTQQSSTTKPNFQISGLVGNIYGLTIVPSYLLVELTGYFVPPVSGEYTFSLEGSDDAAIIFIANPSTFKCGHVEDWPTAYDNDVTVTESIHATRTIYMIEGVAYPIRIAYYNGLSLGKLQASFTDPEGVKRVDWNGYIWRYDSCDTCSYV
(A) -0.601
